# RP-LC retention time per entry
- assay method text: gradient 5% acetonitrile 3 min, to 50% in 2 min, to 85% in 15 min, held 3 min, 100 µL/min
- conditions: column: Zorbax Extend-C18 2.1 x 50 mm; eluents: water / acetonitrile, 0.1% formic acid
value type: RP-LC retention time (s)

CCOC(=O)c1c(C)oc2ncnc(NCCN3CCN(c4ccc(OC)cc4)CC3)c12: 716
O=C(NCc1ccccc1)C1CCN(S(=O)(=O)c2cc(C(=O)N3CCOCC3)cs2)CC1: 694
Cc1ccc(NC(=O)NCC(c2cccnc2)c2c[nH]c3ccccc23)cc1F (centres undefined): 693
O=C(NCc1n[nH]c(=O)c2ccccc12)C(=O)N1CCN(c2ccccc2)CC1: 658
COCCCNC(=O)NCc1cccnc1OC: 594
Cc1cccc(OCCc2noc(C3CCNC3)n2)c1 (centres undefined): 646
Cn1cc(-c2nc(C(=O)Nc3ccccc3F)cs2)c2cccnc21: 1040
Cc1cccc(NC(=O)Nc2nccn(-c3cccc(Cl)c3)c2=O)c1: 1040
O=C(COc1ccccc1F)Nc1cc(C(F)(F)F)ccc1Cl: 1150
CCN(CC)C(=O)c1ccc2oc(CN3CCN(C(=O)NC(C)(C)C)CC3)nc2c1: 628
CCCN(C)c1nccn2c(=O)n(CC(=O)Nc3ccc(C)cc3Cl)nc12: 736
Cc1cnc(C2CC2)n1C1CCN(S(=O)(=O)c2ccc(C#N)cc2)CC1: 660
CCn1c(C)c(C(=O)CN(CC2CCCO2)C(=O)c2cccc(F)c2)c(C)c1C(=O)OC (centres undefined): 896
O=C(COc1ccccc1)N1CCCCC1CCN1CCCCC1 (centres undefined): 635

###

- assay method text: gradient 5% acetonitrile 3 min, to 50% in 2 min, to 85% in 15 min, held 3 min, 100 µL/min
- conditions: column: Zorbax Extend-C18 2.1 x 50 mm; eluents: water / acetonitrile, 0.1% formic acid
// NB: equality with 800 s counts as -1; only RP-LC retention time strictly below is 1

CCOC(=O)c1cnc2c(-c3ccc(F)cc3)c(COC)nn2c1N: -1
COC(=O)c1ccc(NC(=O)N2CCc3nc[nH]c3C2)cc1: 1
COc1ccc(OC)c(S(=O)(=O)N2CCCOCCNC(=O)[C@@H]3CCC[C@@H]32)c1: 1
Cc1ccc(CNC(=O)C2CCCN(S(=O)(=O)c3cc(-c4noc(C)n4)cs3)C2)o1 (stereo not given): -1
CCOC(=O)c1noc2ncnc(Nc3cccc(C)c3C)c12: -1
COc1ccc(C(=O)N2CC(=O)Nc3ccc(F)cc3C2c2ccccc2)c(OC)c1 (stereo not given): -1
Cc1nc(-c2ccnc(N3CCCC3)c2)no1: 1
COc1ccc(NS(=O)(=O)c2cc(-c3[nH]ncc3C(=O)N3CCCCC3)oc2C)cc1: 1
CN(C)C(=O)C1CCN(c2nc3ccc(-c4ccccc4)nc3s2)CC1: -1
Cc1nc(-c2cc(S(=O)(=O)Nc3cccc(F)c3)c(C)s2)sc1C: -1
COc1ccccc1NC(=O)Cn1c(C)cc(-c2nnc(-c3ccccc3)o2)c1C: -1
CCc1ccc(NC(=O)c2cn(-c3cc(-c4nc(CC)no4)ccn3)cn2)cc1: -1
CC1CCN(C(=O)c2nnc(-c3ccc(S(=O)(=O)N4CCOCC4)cc3)o2)CC1: -1
CN(C(=O)c1c2c(cn(-c3ccccc3)c1=O)C(=O)CC(C)(C)C2)c1ccc(F)cc1: -1
Cc1ccc(N2CCN(c3nccn4c(=O)n(CC(=O)Nc5ccc(F)c(Cl)c5)nc34)CC2)cc1: -1
CCCN(C)c1nccn2c(=O)n(CC(=O)Nc3cccc(C(F)(F)F)c3)nc12: 1
O=C(NCc1ccc(Br)cc1)c1cn2ccccc2n1: 1
Cc1nn(C)c(C)c1S(=O)(=O)N1CCC(Cc2nncn2-c2ccccc2)CC1: 1
O=C(NCc1csc(-c2cccs2)n1)C1CCN(C(=O)c2ccc(F)c(F)c2)CC1: 1

###

- assay method text: gradient 5% acetonitrile 3 min, to 50% in 2 min, to 85% in 15 min, held 3 min, 100 µL/min
- conditions: column: Zorbax Extend-C18 2.1 x 50 mm; eluents: water / acetonitrile, 0.1% formic acid
value type: RP-LC retention time

O=C(Nc1cccc(-c2cn3cccnc3n2)c1)c1ccc(Br)cc1: 734 s
CCOC(=O)c1cc(S(=O)(=O)N2CCCC2C(=O)Nc2cccc(F)c2)cn1C (centres undefined): 938 s
COc1cc(-c2nc3nc(C)cc(C)n3c2Nc2ccc(Cl)cc2)ccc1O: 656 s
O=C(c1cn2cc(Cl)ccc2n1)N1CCN(c2ccccc2)CC1: 804 s
Cc1ccc2cc(CCC(=O)NCCCN3CCCCC3C)c(=O)[nH]c2c1 (centres undefined): 590 s
CC1CCCN(c2ccc(-c3noc(CN4CCN(CC(=O)NC(C)C)CC4)n3)cn2)C1 (centres undefined): 635 s
Cc1ccc(N2CCN(C(=O)c3ccc4c(c3)CC(=O)N4C)CC2)cc1: 796 s
Cn1nc(-c2cccc(NC(=O)c3ccc4ccccc4n3)c2)ccc1=O: 829 s
CCOc1ccc(NC(=O)C2CCCN(c3nnc4ccc(Cl)cn34)C2)cc1 (centres undefined): 683 s
CCn1c(=O)c(N2CCC(NC(=O)NCCc3ccccc3)CC2)nc2cccnc21: 824 s
O=C(c1ccc(F)c(Cl)c1)N1CCC(n2c(-c3ccco3)nc3cccnc32)C1 (centres undefined): 800 s
O=C(CC1CCN(C(=O)c2ccc3oc(C4CC4)nc3c2)CC1)N1CCN(c2ccccn2)CC1: 602 s
Cc1ccc(C(=O)N(C)Cc2cccnc2Oc2ccccc2)cn1: 861 s
O=C(Nc1ccccc1Br)N1CCc2nc[nH]c2C1: 566 s
COCCc1noc(-c2nc(-c3ccc(OC)c(OC)c3)no2)n1: 892 s
O=C(Nc1ccc2c(c1)CCCN2S(=O)(=O)c1ccccc1)c1c(F)cccc1Cl: 1080 s
CCn1nccc1-c1cccc(-c2noc(CNS(=O)(=O)c3ccc(F)cc3)n2)c1: 931 s
Cc1cccc(CNC(=O)c2ncn3c2C(=O)N(C2CC2)C(C)(C(=O)NCc2cccc(C)c2)C3)c1 (centres undefined): 832 s
O=C(Cn1cnc2ccccc21)N1CCN(C(=O)C2CC2c2cccs2)CC1 (centres undefined): 592 s

###

- assay method text: gradient 5% acetonitrile 3 min, to 50% in 2 min, to 85% in 15 min, held 3 min, 100 µL/min
- conditions: column: Zorbax Extend-C18 2.1 x 50 mm; eluents: water / acetonitrile, 0.1% formic acid
// NB: equality with 800 s counts as F; only RP-LC retention time strictly below is T

CCc1ccc2c(c1)-c1ccccc1S(=O)(=O)N2CC(=O)NCc1cccnc1: T
CCn1cnc(S(=O)(=O)N2CCC(C(=O)Nc3ccc4c(c3)OCCO4)CC2)c1: T
O=C(CCc1c(-c2ccc(F)cc2)nc2ccccn12)Nc1cc(F)ccc1F: T
Cc1ccc(-c2cc(=O)n3c4ccccc4n(CC(=O)NC4CCCC4)c3n2)cc1: F
Cc1cc(NC(=O)CSc2cc(N3CCCC3)ncn2)ccc1Br: F
COc1ccc(-c2nnc(COc3cccc(NC(=O)c4ccc(C)s4)c3)o2)cc1: F
CCCn1cc(-c2ccncc2)cc1C(=O)Nc1ccc(NC(C)=O)cc1: T
Cc1csc(-c2cc(S(=O)(=O)NCc3ccco3)c(C)n2C)n1: F
O=C(CN1CCN(S(=O)(=O)c2ccccc2)CC1)Nc1ccc(Br)cc1: T
Nc1nc(N2CCN(C3CCCCC3)CC2)ncc1C(=O)Nc1ccccc1: T
CCCNC(=O)N1CCN(Cc2nc3cccnc3n2-c2ccc(F)cc2)CC1: T
O=C(NCCCOc1cccc2cccnc12)c1c(F)cccc1F: T
COc1cccc(NC(=O)N2CCCC2c2nc(-c3cccc(Cl)c3)no2)c1 (stereo not drawn): F
COc1cccc(Cc2nc(CCS(=O)(=O)c3ccc(F)cc3)no2)c1: F
Cc1ccc(CNC(=O)N(C)CCc2noc(-c3ccc(F)cc3)n2)cc1: F

###

- assay method text: gradient 5% acetonitrile 3 min, to 50% in 2 min, to 85% in 15 min, held 3 min, 100 µL/min
- conditions: column: Zorbax Extend-C18 2.1 x 50 mm; eluents: water / acetonitrile, 0.1% formic acid
Everything with RP-LC retention time lower than 1000 s is n; everything else, including exactly 1000 s, is y.

CCn1ccc(C(=O)N2CCCn3nc(-c4ccc(C)cc4)cc3C2)n1: n
O=C(CC(=O)c1ccccc1)Nc1ccc2c(c1)OCCO2: n
CC(C)CCNC(=O)c1ccc2c(c1)nc1n2CCN(C2CCCCC2)C1=O: n
CCCC(=O)N1CC(=O)Nc2ccc(Br)cc2C1c1ccccc1 (configuration not stated): n
COC1CCC12CCN(C(=O)c1cnn(C)c1)CC2 (configuration not stated): n
CC1(O)CCOC2(CCN(C(=O)c3ccc(Br)o3)CC2)C1 (configuration not stated): n
CC1CCN(S(=O)(=O)c2cc(C(=O)N3CCN(c4ccccc4F)CC3)n(C)c2)CC1: y
CN(CCOC(=O)c1cccs1)Cc1ccccc1: n
CC(C)Oc1ccccc1CN1C[C@@H]2C(=O)N(CCCN3CCCC3=O)C(=O)[C@@H]2C1: n
CCOc1ccc(-c2csc(Cc3nc(-c4ccc5c(c4)OCO5)no3)n2)cc1: y
Cc1cc(NC(=O)c2c(O)c3cccnc3n(-c3ccc(F)cc3)c2=O)ccc1F: y
